Hi there, I'd appreciate the recorded GI50 for every entry that follows.
Test system: COLO 205 colon
Experiment: NCI tumour cell line growth inhibition, 48 h

Need GI50 of "C#CCSc1nnnn1-c1ccc(Br)c(C)c1" , thanks.
27.2 µM

Try "COc1ccc2c(c1)C(=O)/C(=C/c1ccc(OCC(=O)c3ccc(Cl)cc3)cc1)O2" next.
4.64 µM

Try "O=[N+]([O-])c1ccc([I+]c2ccccc2)cc1" next.
1.37 µM

Try "CN(C)c1ccc(N=C(C#N)c2nc(N)nc(N3CCOCC3)n2)cc1" next.
> 100 µM

Try "Oc1ccc(-c2nc(-c3ccc(F)cc3)c(-c3ccncc3)[nH]2)cc1" next.
4.77 µM

Try "Cc1nc(N=C(N)N)nc2ccc3ccccc3c12" next.
1.13 µM

* * *

Test system: SK-MEL-2 melanoma
Experiment: NCI tumour cell line growth inhibition, 48 h
Hi there, I'd appreciate the recorded TGI for every entry that follows.
Express your answer in µM, writing the number without its unit.

Need TGI of COc1ccc(C2=NN(c3ccc(S(N)(=O)=O)cc3)C(c3ccc(Cl)cc3)C2)c(O)c1 (stereo not given) , thanks.
22.7

Try "CC[C@]12C=CCN3CC[C@]4(C(=C(C(=O)OC)C1)Nc1ccccc14)[C@@H]32" next.
17.7

Try COC(=O)C1(Cc2ccccc2C)Cc2ccc(C)cc2C1=O (stereo not given) next.
47.7

Try "CCOC(=O)c1c(C)n(-c2ccc(C)cc2)c2c1cc(O)c1[nH]c3c(c12)CCCC3" next.
33.7

* * *

Tested on: MCF7 breast
Assay: NCI tumour cell line growth inhibition, 48 h; in the data active = GI50 below about 0.43 µM; inactive = the rest
Pick one and only one: class 1 = active, class 0 = inactive

Please state the recorded outcome for this molecule: "c1ccc(COc2ccc(Nc3ncnc4ccc(-c5ccco5)cc34)cc2)cc1"
class 0

Try "CC1(C)CCC(CN2CCN(c3ccc(C(=O)NS(=O)(=O)c4ccc(NCC5CCOCC5)c([N+](=O)[O-])c4)c(Oc4cnc5[nH]ccc5c4)c3)CC2)=C(c2ccc(Cl)cc2)C1" next.
class 0

Try CCN1C(=O)N(CC)C2C1NN=c1s/c(=C\c3ccc([N+](=O)[O-])cc3)c(=O)n12 (stereo not given) next.
class 1

Try "Oc1ccc(-c2nc(-c3ccc(F)cc3)c(-c3ccncc3)[nH]2)cc1" next.
class 0

Try "C[C@@H](Oc1cc(-n2cnc3ccc(OCC4CCN(C)CC4)cc32)sc1C(N)=O)c1ccccc1C(F)(F)F" next.
class 1

* * *

Hi there, I'd appreciate the recorded TGI for every entry that follows.
System: SF-268 CNS
Test: NCI tumour cell line growth inhibition, 48 h

Need TGI of "N=C(N)c1ccc(-c2ccc(-c3ccccc3)o2)cc1" , thanks.
4.28 µM

Try "O=[N+]([O-])c1ccc(N=Nc2c(O)[nH]c3ccc(Br)cc23)c([N+](=O)[O-])c1" next.
16.6 µM

Try "NCCCNCCCNc1nc2ccccc2c2[nH]c3ccccc3c12" next.
1.72 µM

Try "Cc1ccc(CCCC(=O)O)cc1C" next.
> 100 µM

Try Cn1cccc1C1CC(=O)N(CCC[Se]C#N)C1=O (stereo unspecified) next.
3.92 µM

Try "S=c1nc(/C=C/c2ccc(Cl)c(Cl)c2)[nH][nH]1" next.
> 100 µM

* * *

Test system: LOX IMVI melanoma
Test: NCI tumour cell line growth inhibition, 48 h
experimental_readout: TGI

Give LOX IMVI melanoma TGI for COC12c3ccccc3-c3ccccc3C1[C@@H](C(=O)O)[C@H]2C(=O)O (stereo partly drawn)
> 10 µM

Try "COc1ccc(C(=O)Nc2ccccc2)cc1[N+](=O)[O-]" next.
> 100 µM

Try "COc1cc(/C=C2\N=C(c3ccccc3)N(/N=C/c3cc4cc(C)ccc4nc3Cl)C2=O)ccc1O" next.
> 100 µM
